hERG current change (%, negative = inhibition) at 10uM values for the compounds below.
Target: human ether-à-go-go-related gene (hERG) potassium channel (human, UniProt Q12809);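 note: peak tail current of the secondary pulse compared with the same well before compound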
Sequence (Q12809 whole entry, looked up): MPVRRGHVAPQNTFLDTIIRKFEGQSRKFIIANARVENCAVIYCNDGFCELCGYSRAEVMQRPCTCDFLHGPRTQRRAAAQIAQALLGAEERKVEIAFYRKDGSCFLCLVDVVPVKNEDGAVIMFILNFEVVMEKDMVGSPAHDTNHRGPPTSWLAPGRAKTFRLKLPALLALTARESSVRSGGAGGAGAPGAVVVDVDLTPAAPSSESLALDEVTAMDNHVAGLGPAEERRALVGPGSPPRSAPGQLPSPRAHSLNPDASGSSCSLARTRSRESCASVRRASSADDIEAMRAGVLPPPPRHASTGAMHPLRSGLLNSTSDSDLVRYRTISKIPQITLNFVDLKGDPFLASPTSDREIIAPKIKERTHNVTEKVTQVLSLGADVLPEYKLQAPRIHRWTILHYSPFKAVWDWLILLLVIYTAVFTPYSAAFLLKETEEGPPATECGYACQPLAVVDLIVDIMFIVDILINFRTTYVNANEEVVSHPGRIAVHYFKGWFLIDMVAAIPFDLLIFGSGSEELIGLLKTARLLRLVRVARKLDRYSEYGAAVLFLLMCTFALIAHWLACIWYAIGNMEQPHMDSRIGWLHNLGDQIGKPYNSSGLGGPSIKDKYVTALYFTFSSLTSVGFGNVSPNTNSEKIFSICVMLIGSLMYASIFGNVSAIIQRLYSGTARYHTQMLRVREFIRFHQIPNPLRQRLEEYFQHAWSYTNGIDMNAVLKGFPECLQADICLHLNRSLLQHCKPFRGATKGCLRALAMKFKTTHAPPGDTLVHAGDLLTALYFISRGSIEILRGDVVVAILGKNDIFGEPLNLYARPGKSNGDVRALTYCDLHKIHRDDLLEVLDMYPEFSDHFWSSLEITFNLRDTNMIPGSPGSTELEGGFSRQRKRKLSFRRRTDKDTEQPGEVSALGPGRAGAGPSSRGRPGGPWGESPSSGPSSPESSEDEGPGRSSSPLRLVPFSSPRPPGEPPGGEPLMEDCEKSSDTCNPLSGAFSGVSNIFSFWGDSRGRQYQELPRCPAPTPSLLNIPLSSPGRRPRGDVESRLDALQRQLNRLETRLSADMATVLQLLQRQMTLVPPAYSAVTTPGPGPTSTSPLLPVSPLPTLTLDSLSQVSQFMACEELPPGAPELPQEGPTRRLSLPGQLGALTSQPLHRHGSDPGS
Assay: primary screen, population patch clamp on CHO cells stably expressing hERG; higher = less effect of the substance
About 14,000 (4.5%) of roughly 310,000 compounds showed an effect of 50% or more. The effect is printed as a negative number. Many of the other results were omitted from the sample, so strong results are more common in it than they were.
endpoint-name: hERG current change (%, negative = inhibition) at 10uM (%)

compound | u | endpoint-value
Cn1c(=O)c2c(nc(CN3CCN(C(=O)c4ccco4)CC3)n2Cc2cccc(Cl)c2)n(C)c1=O | % | -60.1
Cn1c(=O)c2c(nc(CN3CCN(C(=O)c4ccco4)CC3)n2Cc2ccc(F)cc2)n(C)c1=O | % | -44.8
CCC(NC(=O)c1cc(COc2cncc(Cl)c2)on1)c1ccncc1 (stereo not drawn) | % | 8.75
CC(=O)Cn1c(CN2CCN(C(=O)c3ccco3)CC2)nc2c1c(=O)n(C)c(=O)n2C | % | 16
Cn1c(=O)c2c(nc(CN3CCN(C(=O)c4ccco4)CC3)n2Cc2ccccc2)n(C)c1=O | % | -40.7
Cc1c(C(=O)Nc2c(F)cccc2F)sc2ncn(CC(=O)N3CCCCC3)c(=O)c12 | % | 3.98
O=c1[nH]c(=O)n(-c2ccccc2Cl)c(O)c1C=NCCN1CCCCC1 | % | 6.09
Cc1ccccc1Cn1c(CN2CCN(C(=O)c3ccco3)CC2)nc2c1c(=O)n(C)c(=O)n2C | % | -45
CCOc1ccc(-c2nnn(CC(=O)c3cc(OC)ccc3OC)n2)cc1 | % | -7.91
